- targetDesc: T1, human IL-17F (human, UniProt Q96PD4 31-163)
- T1 construct: GenBank AF384857, expressed in Hek293 as 6-His C-terminal tagged protein; also called hIL-17F; IL-17F-6HIS
- T1 sequence: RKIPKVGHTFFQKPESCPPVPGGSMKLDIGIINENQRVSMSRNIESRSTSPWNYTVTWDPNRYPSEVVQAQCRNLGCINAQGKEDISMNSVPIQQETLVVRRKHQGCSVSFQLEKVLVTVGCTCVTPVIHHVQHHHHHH
- method: ELISA, coated IL-17F;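 also: binding ELISA on coated antigen from various species, with bound Nanobodies revealed by an HRP-linked anti-myc antibody and esTMB substrate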

| binder | unitsSymbol | OD |
| --- | --- | --- |
| 09G10 (VHH, Class 2) VHH: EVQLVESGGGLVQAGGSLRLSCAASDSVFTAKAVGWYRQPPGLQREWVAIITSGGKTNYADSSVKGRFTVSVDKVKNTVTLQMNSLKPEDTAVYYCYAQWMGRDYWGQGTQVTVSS | OD | -0.018 |
| 13B03 (VHH, Class 4; also called IL17MS13B03) VHH: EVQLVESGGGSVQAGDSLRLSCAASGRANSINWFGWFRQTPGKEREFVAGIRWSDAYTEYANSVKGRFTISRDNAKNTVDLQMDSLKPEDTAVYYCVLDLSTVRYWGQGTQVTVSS | OD | 1.66 |
| 16A04 (VHH, Class 3; also called IL17MS16A04) VHH: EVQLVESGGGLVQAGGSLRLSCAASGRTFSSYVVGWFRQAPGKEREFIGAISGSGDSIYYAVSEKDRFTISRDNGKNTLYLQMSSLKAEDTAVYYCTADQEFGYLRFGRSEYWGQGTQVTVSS | OD | 1.74 |
| 04B09 (VHH, Class 2) VHH: EVQLVESGGGLVQPGGSLRLSCAASGFTLGYYAIGWFRQAPGKEREGVSCDSSSDGDTYYANSVKGRFTISTDNGKNTVYLQMNSLKPEDTAVYYCATCTDWNYDYWGQGTQVTVSS | OD | -0.015 |
